# TEST DESCRIPTION: Log P (Table 1)
# Format: physicochemical
Field: logP. Provide a value for each of the compounds that follow.
Answers are plain numbers.

Cc1cccc([C@H](C)c2cnc[nH]2)c1C ... 3

Then there is this compound:
(Q) Query (compound): Brc1c(NC2=NCCN2)ccc2nccnc12 ; field requested: logP
(A) 1
